# Test name: Cell Viability - LYMP1-002 - Assay at 40 hr (AID 994); also: nearly all actives have a fitted effect of over 60% in size
# Experimental parameters: LYMP1-002 lymphoblastoid cell viability; series mostly up to 92.2 µM
Results filed as inconclusive are left out. Calls of active or inactive are those of the source. Calls follow the shape of the dose curve; as a rule, active = well fitted cell-killing curve with a large enough effect; inconclusive = small, poorly fitted or top-dose-only effect; inactive = flat fitted curve, though single readings scatter.
Your answer must be one of the following: active, inactive

- Compound: "Cc1ccccc1O"
  Label: "inactive"
- Compound: "CCOc1cc(C=O)ccc1O"
  Label: "inactive"
- Compound: "Oc1c(Cl)c(Cl)c(Cl)c(Cl)c1Cl"
  Label: "inactive"
- Compound: "CC(=O)[C@H]1CC[C@H]2[C@@H]3CCC4=CC(=O)CC[C@]4(C)[C@H]3CC[C@]12C"
  Label: "inactive"
- Compound: "c1ccc2c(c1)-c1cccc3cccc-2c13"
  Label: "inactive"
- Compound: "c1ccc(Nc2ccc3ccccc3c2)cc1"
  Label: "inactive"
- Compound: "Oc1ccccc1Cl"
  Label: "inactive"
- Compound: "CC(C)(c1ccc(OCC2CO2)cc1)c1ccc(OCC2CO2)cc1 (stereo not given)"
  Label: "inactive"
- Compound: "Oc1ccccc1O"
  Label: "active"

What is the recorded call for this compound in the test? O=Cc1ccccc1
inactive

* * *

# Test name: qHTS for Inhibitors of the Functional Ribonucleoprotein Complex (vRNP) of Lymphocytic Choriomeningitis Arenaviruses (LCMV): Viability assay - alamar blue signal for LCMV Primary Screen (AID 1347085); also: nearly all actives have a fitted effect of over 80% in size
# Experimental parameters: alamar blue viability counter-screen, LCMV vRNP screen cells; series mostly up to 57.5 µM
Inconclusive results are not listed. Calls of active or inactive are those of the source. Calls come from the whole dose curve; tested in HEK293 reporter line.
Assay endpoint: outcome

Worked cases, outcome given:
- Compound: "CCOC(=O)O[C@]1(C(=O)OCCl)CC[C@@H]2[C@H]3CCC4=CC(=O)C=C[C@]4(C)[C@@H]3[C@@H](O)C[C@@]21C"
  Assay endpoint: "outcome"
  Reported measurement: "inactive"
- Compound: "COc1cc2ccc(=O)oc2c(O)c1O"
  Assay endpoint: "outcome"
  Reported measurement: "inactive"
- Compound: "C[N+](C)(C)CCOP(=O)([O-])OC[C@H](O)CO"
  Assay endpoint: "outcome"
  Reported measurement: "inactive"
- Compound: "C=CC(C)=CCC=C(C)C"
  Assay endpoint: "outcome"
  Reported measurement: "inactive"

Entry CC1CNc2c(cccc2S(=O)(=O)N[C@@H](CCCN=C(N)N)C(=O)N2CC[C@@H](C)C[C@@H]2C(=O)O)C1 (stereo not given in full) needs its outcome filled in; supply it.
inactive

Report measured outcome; entry is CC(=O)OC[C@]1(OC(C)=O)C[C@@]23CC[C@H]4[C@@](C)(CCC[C@@]4(C)C(=O)O)[C@@H]2CC[C@@H]1C3
inactive

Report outcome, nothing else, for this compound: O=C1NC(c2cccc([N+](=O)[O-])c2)=CCN1c1ccccc1O
inactive

Report outcome for C[C@H](NC(=O)c1sccc1OCc1ccc(Cl)cc1)c1ccccc1
inactive

Name the recorded outcome of the compound listed here: CSC(=S)NCc1c[nH]c2ccccc12
inactive

Give reported outcome value for O=C(NCO)c1cccnc1
inactive

* * *

# Test name: P-glycoprotein substrates identified in KB-8-5-11 adenocarcinoma cell line, qHTS therapeutic library screen (AID 1346987); also: nearly all actives have a fitted effect of over 65% in size
# Experimental parameters: KB-8-5-11 (P-gp overexpressing) viability, CellTiter-Glo, 72 h; series mostly up to 44.5 µM
Records with an inconclusive call do not appear. Active and inactive are the calls of the source. The call rests on the fitted dose curve; in most records, active means well fitted inhibition curve with a large enough effect; inconclusive means small, poorly fitted or top-dose-only effect; inactive means flat fitted curve, though single readings scatter.
Could you please pick one outcome from this set? Yes = active, No = inactive

Use these answered entries as a reference point.
- Compound: "N#Cc1ccc(N2CCN(C(=O)COc3ccc4[nH]cc(CCN)c4c3)CC2)cc1"
  Label: "No"
- Compound: "CC1CCCC(O)CC(=O)Cc2cc(O)cc(O)c2C(=O)O1 (centres undefined)"
  Label: "No"
- Compound: "CC1Oc2cc3c(-c4c(O)cc(O)c5c(O)c6c(cc45)OC(C)C(C)C6=O)c(O)cc(O)c3c(O)c2C(=O)C1C (centres undefined)"
  Label: "Yes"
- Compound: "CC(C)C(=O)O[C@H]1[C@@H]2[C@H](C)C(=O)O[C@@H]2C[C@@H](C)[C@@H]2C=CC(=O)[C@]21C"
  Label: "Yes"
- Compound: "CC(=O)NCCCOc1ccc(C(=O)N2CCC(N3C(=O)CCc4ccccc43)CC2)cc1"
  Label: "No"
- Compound: "COc1cc(O)c2c(c1)CCC[C@@H](O)[C@H](O)C(=O)/C=C\\C[C@H](C)OC2=O"
  Label: "Yes"

GET /call?item= C=CC/C=C\C/C=C\CCCCCCCc1cc(O)cc(O)c1 returns the recorded outcome of this test.
No

Status in this test for CCCCNC(C)(C)[P+](=O)O ?
No

Which outcome was entered for the compound C=C(C)C(=O)O[C@H]1[C@@H]2[C@H](C)C(=O)O[C@@H]2C[C@@H](C)[C@@H]2C=CC(=O)[C@]21C in this test?
Yes
